# Experimental Target: GR (Homo sapiens, UniProt P04150)
# Sequence (P04150 whole entry): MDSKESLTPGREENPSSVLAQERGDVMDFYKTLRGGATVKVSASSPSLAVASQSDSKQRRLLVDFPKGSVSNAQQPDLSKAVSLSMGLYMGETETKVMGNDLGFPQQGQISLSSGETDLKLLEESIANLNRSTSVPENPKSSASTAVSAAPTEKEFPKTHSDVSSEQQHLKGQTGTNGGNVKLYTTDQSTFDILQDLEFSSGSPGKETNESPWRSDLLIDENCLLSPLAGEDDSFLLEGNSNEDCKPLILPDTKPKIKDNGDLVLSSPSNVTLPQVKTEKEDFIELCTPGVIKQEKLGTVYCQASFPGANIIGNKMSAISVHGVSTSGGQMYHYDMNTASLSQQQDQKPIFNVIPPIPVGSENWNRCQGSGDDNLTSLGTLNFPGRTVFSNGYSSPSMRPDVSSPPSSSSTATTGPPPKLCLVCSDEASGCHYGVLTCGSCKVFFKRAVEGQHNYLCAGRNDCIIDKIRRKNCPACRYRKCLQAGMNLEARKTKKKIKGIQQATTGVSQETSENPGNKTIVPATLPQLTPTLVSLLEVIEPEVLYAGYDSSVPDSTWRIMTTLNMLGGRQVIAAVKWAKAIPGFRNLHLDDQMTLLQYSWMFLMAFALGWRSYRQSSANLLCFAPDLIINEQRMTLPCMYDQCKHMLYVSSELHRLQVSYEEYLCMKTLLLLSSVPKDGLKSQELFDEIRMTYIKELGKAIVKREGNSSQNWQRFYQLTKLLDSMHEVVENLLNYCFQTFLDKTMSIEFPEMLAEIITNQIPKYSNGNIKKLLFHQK
# Experimental Protocol: Determination of induction activity, MMTV-Luc reporter in AD293 cells transfected with pRShGR (Table 3, FIG. 14)
# Condition Details: 1000 nM
Some molecules, each annotated with its measured Mean (RLU/Renilla).
Form: value (number only, do not type unit).

molecule="C[C@@H]1CC2C3C=C(F)C4=Cc5c(cnn5-c5ccccc5)C[C@]4(C)[C@@]3(F)C(O)C[C@]2(C)[C@@]1(OC(=O)c1ccco1)C(=O)OC(C)(C)C (stereo partly drawn) [Compound 6]" endpoint_result=1.614
molecule="C[C@@H]1CC2C3C=C(F)C4=Cc5c(cnn5-c5ccccc5)C[C@]4(C)[C@@]3(F)C(O)C[C@]2(C)[C@@]1(OC(=O)c1ccco1)C(=O)SCF (stereo partly drawn) [Compound 5]" endpoint_result=1.235

Proceeding to the next molecule to report its Mean (RLU/Renilla).
Query: Field request: Mean (RLU/Renilla) | item: CCOC(=O)[C@@]1(OC(=O)c2ccco2)[C@H](C)CC2C3C=C(F)C4=Cc5c(cnn5-c5ccccc5)C[C@]4(C)[C@@]3(F)C(O)C[C@@]21C (stereo partly drawn) [Compound 2]
Result: 1.311
